Reference source for all entries: the supplement of paper PMC6555819

# Tested on: PPARg:RXRa (NR concentration 180 nM, RXRa partner concentration 90 nM)
# measurement-description: PBM binding z-score (relative to random genomic background probes); higher = stronger binding; sequences stand for … in GC…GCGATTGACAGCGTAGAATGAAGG

item-sequence	PBM binding z-score
AGTCAAAGTTCATCTAGGTACCGTAAGATATGCT	6.25
TCTGCTAGGTCAACGGTGGTCAGCTAATCTGCTA	3.35
CTACCAAGGTGAACAATGTCGTTGATTACTATTC	0.621
CAAACTAGGTAAAGAGGTCAAAGTCCGCTTCCCG	6.6

---

# Test system: PPARg:RXRa 270nM:90nM, anti-RXR (NR concentration 270 nM, RXRa partner concentration 90 nM)
# measurement-description: PBM binding z-score (relative to random genomic background probes); higher = stronger binding; sequences stand for … in GC…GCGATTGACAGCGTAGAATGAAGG
Parameter PBM binding z-score: see the listing below.
quantity-measured: PBM binding z-score

item-sequence	value
CATACAGGGTCAGCTAGCCCAGAGTAGGGACGGC	2.84
CAGCCTAGGTCAGGGCGAGTATAGGAGGAACGTT	1.29
AGAACGAGGGCAATGAGTTGATAGTACGGGTGGC	0.768
ACAATGAGGTTAAGATCAGGGAAACAGAATACAT	1.68
CCTTACGTGTCACGAGGTTATAGCACGACGAGCG	1.6
CCGACTGGGGCATAAGCTTACCATAAGCCAGCCC	1.04
ATAACGAGGGCACGCTGAGTTGATAGCAGAGTAG	1.88
ACTATTCGTTGAGACGAGGGCAACCGATAGGTTG	0.366
CGAACTAGGTCATGGACAGTGAATCTCCGCACGC	6.4
GTAACGAGGGCAAGTTGATAGCAGAGTTTGATGG	1.19
ATCTCTAGGTAAAGTCCAGTGAAAGATCGATAGA	0.48
GCTGCTAAGTCAACTGATGGTCAGCTAAAGCTCG	-0.538
TTACCAAGGTGAGCTGAGGTTGTTGATCCAACTC	0.187
CCTCGGAGGACAACAGGAGGTCAGAGATGCCAGA	0.272
TCATATAGGTAAAAGGTGAAAGTCGGTGTGGTAA	8.85
CCTGCTAGGTCATTGGTCAGCTAAAGCAGCTCGC	4.63
